Reference source for all entries: patent US20230416330A1

Biological target: T1, human GIP receptor (human, UniProt P48546 22-466)
T1 sequence (looked up): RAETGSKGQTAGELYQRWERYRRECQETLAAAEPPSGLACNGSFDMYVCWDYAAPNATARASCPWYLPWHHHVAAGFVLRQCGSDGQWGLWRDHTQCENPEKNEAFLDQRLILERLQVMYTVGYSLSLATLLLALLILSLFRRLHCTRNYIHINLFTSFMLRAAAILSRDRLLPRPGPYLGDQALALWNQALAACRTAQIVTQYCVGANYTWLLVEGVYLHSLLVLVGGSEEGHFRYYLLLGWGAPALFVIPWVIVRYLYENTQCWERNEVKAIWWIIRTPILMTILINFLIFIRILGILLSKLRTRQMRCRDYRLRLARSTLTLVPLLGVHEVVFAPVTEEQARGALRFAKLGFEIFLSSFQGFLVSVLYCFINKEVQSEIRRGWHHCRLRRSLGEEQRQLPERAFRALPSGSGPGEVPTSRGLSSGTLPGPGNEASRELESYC
Test: cell-based or functional assay
Starred links: 1 amine or outer side, 2 acyl side, 3 side chain; linkers in the order of their positions; H or OH if unused. Non-standard residues stand in square brackets, D forms with d. Groups on a side chain read outwards from the residue. No end group written: not given here. *: point of attachment. C18 diacid = O=C(O)CCCCCCCCCCCCCCCCC(=O)*; C16 diacid = O=C(O)CCCCCCCCCCCCCCC(=O)*; γGlu = O=C(O)[C@H](CCC(=O)[*:2])N[*:1]; Glutaryl = O=C(CCCC(=O)[*:2])[*:1]; Suc = O=C(CCC(=O)[*:2])[*:1]; AEEA = NCCOCCOCC(=O)O; Aib = CC(C)(N)C(=O)O
parameter: nM (Kb, Gaddum assay, cAMP) (nM)
Express your answer in nM, writing the number without its unit.

Enquiry: Give nM (Kb, Gaddum assay, cAMP) for Suc-GTFISEYSI[Aib]LEKIK([AEEA-AEEA-γGlu-C18 diacid])QQEFVEWLLAQKPSSGAPPPS-OH [AT752]
Return: 0.52

Enquiry: Give nM (Kb, Gaddum assay, cAMP) for Glutaryl-GTFISDYSI[Aib]MDKIK(C16 diacid)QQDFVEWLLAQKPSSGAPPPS-OH [AT715]
Return: 0.19

Enquiry: Give nM (Kb, Gaddum assay, cAMP) for EGTFISEYSIAMEKIK([AEEA-AEEA-γGlu-C18 diacid])QQEFVEWLLAQKPSSGAPPPS-OH [AT710]
Return: 0.73

Enquiry: Give nM (Kb, Gaddum assay, cAMP) for EGTFISEYSI[Aib]LEKIK([Lys-Ala-Ala-Ala-Glu-Lys-Ala-Ala-Ala-Glu-Lys-Ala-Ala-Ala-Glu-C16 diacid])QQEFVEWLLAQKPSSGAPPPS-OH (not fully specified) [AT724]
Return: 0.31

Enquiry: Give nM (Kb, Gaddum assay, cAMP) for EGTFISEYSI[Aib]MEKIK([AEEA-AEEA-γGlu-C18 diacid])QQEFVEWLLAQKPSSGAPPPS-OH [AT709]
Return: 0.24

Enquiry: Give nM (Kb, Gaddum assay, cAMP) for EGTFISEYSI[Aib]LEKIK([Ala-Glu-Leu-Ala-C16 diacid])QQEFVEWLLAQKPSSGAPPPS-OH [AT725]
Return: 0.6

Enquiry: Give nM (Kb, Gaddum assay, cAMP) for EGTFISEYSIALEKIK(C16 diacid)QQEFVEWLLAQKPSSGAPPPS-OH [AT718]
Return: 0.33
